Tested on: HEK293T (UBE3A T485A transfected, BAR Wnt reporter)
PROTOCOL NOTES: Wnt reporter firefly/Renilla luciferase ratio relative to plate median (fold (linear ratio)); higher = more Wnt/beta-catenin reporter activation
MEASUREMENT CONDITIONS: concentration: 100 uM; 24 h
In all, about 1,100 compounds were measured (“Wnt reporter firefly/Renilla luciferase ratio relative to plate median”: median about 1.1, highest 2% from about 1.6 on). The list comes from a sample in which the highest values are over-represented; it also holds close analogues and randomly drawn compounds.
MEASURED METRIC: Wnt reporter firefly/Renilla luciferase ratio
Give the value as a plain number.

Tell me measured Wnt reporter firefly/Renilla luciferase ratio for `O=C(O)c1cc(/N=N/c2ccc(S(=O)(=O)Nc3ccccn3)cc2)ccc1O` please.
3.01

Tell me measured Wnt reporter firefly/Renilla luciferase ratio for `CCN(Cc1c(F)cccc1Cl)c1c([N+](=O)[O-])cc(C(F)(F)F)cc1[N+](=O)[O-]` please.
0.851

Tell me measured Wnt reporter firefly/Renilla luciferase ratio for OCC1OC(n2cnc3c(NC4CCCC4)ncnc32)C(O)C1O (configuration not stated) please.
1.18

Tell me measured Wnt reporter firefly/Renilla luciferase ratio for `CCCN(CCC)c1c([N+](=O)[O-])cc(C(F)(F)F)c(N)c1[N+](=O)[O-]` please.
1.29

Tell me measured Wnt reporter firefly/Renilla luciferase ratio for Cl.Nc1ccn([C@@H]2O[C@H](CO)[C@@H](O)[C@@H]2O)c(=O)n1 [Cytarabine hydrochloride] please.
0.125

Tell me measured Wnt reporter firefly/Renilla luciferase ratio for CC(C)NCC(O)c1ccc(O)c(O)c1.Cl (configuration not stated) [Isoproterenol hydrochloride] please.
0.309

Tell me measured Wnt reporter firefly/Renilla luciferase ratio for `C#C[C@]1(O)CC[C@H]2[C@@H]3CCC4=CC(=O)CC[C@@H]4[C@H]3CC[C@@]21CC` please.
1.36

Tell me measured Wnt reporter firefly/Renilla luciferase ratio for `Oc1ccc2ccccc2c1/N=N/c1ccccc1` please.
1.37

Tell me measured Wnt reporter firefly/Renilla luciferase ratio for `CCN(Cc1cccc(S(=O)(=O)[O-])c1)c1ccc(C(=C2C=CC(=[N+](CC)Cc3cccc(S(=O)(=O)[O-])c3)C=C2)c2ccccc2S(=O)(=O)[O-])cc1.[Na+].[Na+]` please.
0.433

Tell me measured Wnt reporter firefly/Renilla luciferase ratio for `CC(=O)c1ccccc1` please.
1.46

Tell me measured Wnt reporter firefly/Renilla luciferase ratio for `O=C(O)c1cccc(C(=O)O)c1` please.
1.02

Tell me measured Wnt reporter firefly/Renilla luciferase ratio for `O=C(O)[C@H](O)[C@@H](O)C(=O)O` please.
1.46

Tell me measured Wnt reporter firefly/Renilla luciferase ratio for `OCC(O)CO` please.
1.04

Tell me measured Wnt reporter firefly/Renilla luciferase ratio for `COc1cc(S(=O)(=O)[O-])c(C)cc1/N=N/c1c(O)ccc2cc(S(=O)(=O)[O-])ccc12.[Na+].[Na+]` please.
2.21

Tell me measured Wnt reporter firefly/Renilla luciferase ratio for `Nc1ncn([C@@H]2O[C@H](CO)[C@@H](O)[C@H]2O)c(=O)n1` please.
2.42

Tell me measured Wnt reporter firefly/Renilla luciferase ratio for `CCCOC(=O)c1ccc(O)cc1` please.
0.169

Tell me measured Wnt reporter firefly/Renilla luciferase ratio for `O=C(NO)C1(NS(=O)(=O)c2ccc(Oc3ccc(F)cc3)cc2)CCOCC1` please.
0.244
